- TARGET_OR_TEST_SYSTEM: T1, PUF4 RNA-binding domain (Saccharomyces cerevisiae, UniProt P25339 537-888)
- T1 sequence: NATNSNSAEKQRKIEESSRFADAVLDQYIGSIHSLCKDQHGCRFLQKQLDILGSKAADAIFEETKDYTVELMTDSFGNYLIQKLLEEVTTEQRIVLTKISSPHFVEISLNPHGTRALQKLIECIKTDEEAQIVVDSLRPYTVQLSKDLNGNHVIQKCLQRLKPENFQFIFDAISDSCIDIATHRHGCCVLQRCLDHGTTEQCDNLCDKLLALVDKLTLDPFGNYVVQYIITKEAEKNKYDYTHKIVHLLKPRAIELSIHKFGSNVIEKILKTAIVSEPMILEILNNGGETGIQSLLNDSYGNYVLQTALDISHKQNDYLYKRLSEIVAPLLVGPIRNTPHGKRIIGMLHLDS
- PROTOCOL: Mg; RNA-MaP; 20 mM Na-HEPES pH 7.4, 30 mM KOAc, 0.75 mM MgCl2, 0.1% Tween-20, 5% glycerol, 0.1 mg/mL BSA, 2 mM DTT; 25 C; 0.0125-409.6 nM protein
- REPORTED_CONDITIONS: tags: N-His6-TEV cleaved; C-SNAP kept, Cy3B-labelled; label: tethered on chip by stalled RNA polymerase
Each entry below lists one item and its recorded pKd value.
Quick note: pKd values are minus log10 of concentrations in mol/L.

1) UCUCUUAUUAUAUUAUUACGUCUCUU (ssRNA) [Id_ii_S1_P5E.3_K5.2_C5.2_[C-2A]_H5.2_A5.1_F5.1_T5.2_[T11C]_[A12G]]
6.90
2) Id_ii_S2_P5E.3_K5.2_C5.2_[C-2A]_[T-1C]_H5.2_A5.1_F5.1_T5.2_[A12T] (ssRNA) RNA: UUUGAUUAAUAUGAUAUCGUUCUUUCUACUAUAUUAUUAUUUUCUUUCUCGAUAUCAUAUUAAUCUUU
6.76
3) Ic_S2_P4E.1_K4.1_C4.1_H4.1_A4.1_[A6G]_[T7C]_F4.1_[T8A]_[A9C]_T4.1 (ssRNA) RNA: UUUGAUUAAUAUGAUAUCGUUCUUUCUUGUAUGCACUUCUUUCUCGAUAUCAUAUUAAUCUUU
6.07

Consider the additional binder presented here.
Query :: For the binder UCUCUUUAUAUAUAUAAUUCUCUU (ssRNA) [Id_ii_S1_P3E.3_K3.2_C3.2_[C-2T]_[T-1A]_H3.2_A3.1_F3.1_T3.2_[T9A]_[A10T]] , give its measured pKd value.
Result :: 6.19
